Quick reference for growth among some compounds
Test system: CCRF-CEM leukemia
Assay info: NCI-60 one-dose screen, 48 h (100 = growth as untreated, 0 = no growth, -100 = all killed)
Reported conditions: 10 µM unless noted
Compounds without any hit were thinned out: in the full panel of roughly 83,000, 20% have a hit. The source made the active and inactive calls. The calls were made as follows: active = growth percent below 10; inactive = the rest.

{"Compound structure": "Cc1ccc(S(=O)(=O)N(CCc2ccc(Cl)cc2)S(=O)(=O)c2ccc(C)cc2)cc1", "Tested system": "CCRF-CEM leukemia", "growth": "83.7% (inactive)"}
{"Compound structure": "COc1ccc(-c2nc(Nc3cc(C)[nH]n3)c3ccccc3n2)cc1", "Tested system": "CCRF-CEM leukemia", "growth": "49.3% (inactive)"}
{"Compound structure": "O=C1c2cccnc2C(=O)c2c1c(C(=O)OCCN1CCCCC1)c1ccccn21", "Tested system": "CCRF-CEM leukemia", "growth": "-8.77% (active)"}

Please look at the following compound next.
Ask | I would be grateful if you could share the reported growth for Nc1cc(-c2nc3sccn3c2-c2ccnc(NCCCNS(=O)(=O)c3ccc(F)cc3)n2)ccc1F .
Reply | 21.2% (inactive)

====

Tested on: 786-0 renal
Assay info: NCI-60 one-dose screen, 48 h
Reported conditions: 10 µM unless noted
This is part of a sample that, as a whole, favours compounds with a hit. Of some 83,000 tested, about 20% had one in any assay. Calls of active or inactive are those of the source. Rule for the calls: active = growth percent below 10; inactive = the rest.
Mark one answer only. Choices: active, inactive

// below: answered compounds
{"Compound": "C=C(C[n+]1ccccc1)[C@@H]1CC[C@]2(C(=O)OC)CC[C@]3(C)[C@H](CC[C@@H]4[C@@]5(C)CC[C@H](O)C(C)(C)[C@@H]5CC[C@]43C)[C@@H]12", "Tested system": "786-0 renal", "Class assignment": "inactive"}
{"Compound": "Cc1cccc(NC(=O)c2sc3nc4c(cc3c2N)C(=O)CCC4)c1", "Tested system": "786-0 renal", "Class assignment": "inactive"}
{"Compound": "CC#Cc1nc2ccccc2c(=O)[nH]1", "Tested system": "786-0 renal", "Class assignment": "inactive"}
{"Compound": "Cc1cc(Nc2nc(-c3cccnc3)nc3ccccc23)n[nH]1", "Tested system": "786-0 renal", "Class assignment": "inactive"}
{"Compound": "COc1ccc(S(=O)(=O)NCCNc2nccc(-c3c(-c4cccc(N)c4)nc4sccn34)n2)cc1", "Tested system": "786-0 renal", "Class assignment": "inactive"}

Ask | Tell me the assay call for CN1CCOCCOCCOc2ccccc2NC(=O)c2nc(cnc2N)-c2ccc(cc2)S1(=O)=O please.
Reply | inactive

Ask | Tell me the assay call for COc1ncc(-c2ccc3ncnc(Nc4cccc(Cl)c4)c3c2)cc1NS(C)(=O)=O please.
Reply | inactive

Ask | Tell me the assay call for O=C(Nc1ccc(Oc2ccc(F)cc2)c(Cl)c1)c1cccnc1 please.
Reply | inactive

Ask | Tell me the assay call for CCN(CC)CCCNc1cccc2c(SCc3ccccc3)ccnc12 please.
Reply | inactive

Ask | Tell me the assay call for CS(CCCCN=C=S)=NC(=O)c1c(F)c(F)c(F)c(F)c1F (stereo unspecified) please.
Reply | inactive

Ask | Tell me the assay call for O=C(/C=C/c1ccc(Cl)cc1)/C=C/c1cc2ccccc2[nH]c1=O please.
Reply | inactive

Ask | Tell me the assay call for O=[N+]([O-])c1cccc(-c2nc3sccn3c2-c2ccnc(NCCCNS(=O)(=O)c3cccc(F)c3)n2)c1 please.
Reply | inactive

Ask | Tell me the assay call for O=C1/C(=C\c2cn(C(=O)c3ccc(Cl)cc3)c3ccccc23)c2ccccc2N1c1c(Cl)cccc1Cl please.
Reply | inactive

Ask | Tell me the assay call for O=C1Nc2ccccc2/C1=C/C(=N/c1nnc(-c2ccccc2)s1)c1ccccc1 please.
Reply | active

Ask | Tell me the assay call for C=CCSc1nnc(-c2ccc(C(C)(C)C)cc2)n1-c1cccc(C(F)(F)F)c1 please.
Reply | inactive

Ask | Tell me the assay call for CCOC(=O)N1CCN(c2nc(Nc3cc(C)[nH]n3)c3ccccc3n2)CC1 please.
Reply | inactive

Ask | Tell me the assay call for COc1ccc(-c2cc(NC(=O)Nc3ccc(O)cc3)no2)cc1 please.
Reply | inactive

Ask | Tell me the assay call for COc1ccc(C(=O)c2sc3nc(-c4ccccc4OC)ccc3c2N)cc1OC please.
Reply | inactive

Ask | Tell me the assay call for NC1=CSC2=N/C(=C\c3ccc(Cl)cc3)C(=O)N12 please.
Reply | inactive

Ask | Tell me the assay call for COc1ccccc1/C=C(/C(=O)c1ccccc1)c1ccccc1 please.
Reply | inactive
